Biological target: T1, recombinant human CD3 epsilon/gamma heterodimer (human, UniProt P07766 23-126; P09693 23-116)
T1 construct: Recombinant protein in solution (200-50 nM) in the Octet assay; also called hCD3 E/G
T1 sequence (P07766 23-126, chain 1 of 2): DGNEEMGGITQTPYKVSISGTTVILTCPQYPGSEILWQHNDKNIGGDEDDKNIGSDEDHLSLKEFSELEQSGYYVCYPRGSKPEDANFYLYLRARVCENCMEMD
T1 sequence (P09693 23-116, chain 2 of 2): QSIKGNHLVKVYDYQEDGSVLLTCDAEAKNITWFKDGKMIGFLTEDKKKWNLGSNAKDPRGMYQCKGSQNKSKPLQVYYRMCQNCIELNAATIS
Experiment: Octet BLI, mAb on FAB2G sensor, hCD3 E/G 200-50 nM; R^2 0.99

| binder | Response |
| --- | --- |
| ABL-CD3-5 (antibody, V domains shown, Chimeric hybridoma mAb: human V, CH1, upper hinge; mouse middle hinge, CH2, CH3) VH: EVQLVESGGGLVQPGGSLRLSCAASGFTFSRYSMNWVRQAPGKGLEWVSYISSSSSSIYYADSVKGRFTISRDNAKNSLYLQMNSLRDEDTAVYYCARDRRATLDYWGQGTLVTVSS VL: NFMLTQPHSVSESPGKTVTISCTRSSGSIASNYVQWYQQRPGSSPTTVIYEDNQRPSGVPDRFSGSIDSSSNSASLTISGLKTEDEADYYCQSYDSSNHVFGGGTKLTVL | 0.27 |
| ABL-CD3-50 (antibody, V domains shown, Chimeric hybridoma mAb: human V, CH1, upper hinge; mouse middle hinge, CH2, CH3) VH: QVQLQQSGPGLVKPSQTLSLTCAISGDSVSSNSVAWNWIRQSPSRGLEWLGRTYSRSKWYNDYAVSVKSRITINPDTSKNQFSLELNSVTPEDTAVYYCARERKWELFLDYWGQGTLVTVSS VL: NFMLTQPHSVSESPGKTVTISCTRSSGSIASNYVQWYQQRPGISPTTVIYEDNQRPSGVPDRFSGSIDSSSNSASLTISGLKTEDEADYYCQSFDTSNVVFGGGTKLTVL | 0.6 |
